Overview of recorded melting point for various compounds

Known melting point results, listed for orientation:
[
  {
    "compound": "NC(=O)C1CCCN1c1nc(-c2ccccc2)nc2[nH]c(C(=O)O)cc12 (stereo not shown)",
    "melting point": "220 °C (dec.)"
  },
  {
    "compound": "NC(=O)[C@@H]1C[C@H](O)CN1c1nc(-c2ccccc2)nc2[nH]ccc12",
    "melting point": "268 to 271 °C"
  },
  {
    "compound": "NC(=O)c1cc2c(NC3CCC(O)CC3)nc(-c3ccccc3)nc2[nH]1 (stereo not shown)",
    "melting point": "210 to 220 °C (dec.)"
  },
  {
    "compound": "COC(=O)c1cc2c(NC3CCC(O)CC3)nc(-c3ccccc3)nc2[nH]1 (stereo not shown)",
    "melting point": "225 to 227 °C"
  },
  {
    "compound": "NC(=O)[C@@H]1CCCN1c1nc(-c2ccccc2)nc2[nH]ccc12",
    "melting point": "236 to 238 °C"
  }
]

Input: Supply recorded melting point for CC(=O)NCCNc1nc(-c2ccccc2)nc2[nH]c(COc3ccccc3)cc12 here.
Output: 196 to 197 °C

Input: Dear colleague, please send me the reported melting point for COCc1cc2c(N3CCCC3C(N)=O)nc(-c3ccccc3)nc2[nH]1 (stereo not shown) when you can.
Output: 213 to 215 °C
